What IC50 was measured for each of the following?
TEST TARGET: T1, human PCSK9 (human, UniProt Q8NBP7 31-692)
T1 construct: also called hPCSK9; huPCSK9
TEST SUMMARY: PCSK9:LDLR FRET, competition
A number alone suffices; assume nM.

Consider PCSK9-PKE2 tandem Adnectin w/ his tag 4472_C06 (designed binder, also called ATI-1574; ADX_4472_C06) MGVSDVPRDLEVVAATPTSLLISWDAPAEGYGYYRITYGETGGNSPVQEFTVPVSKGTATISGLKPGVDYTITVYAVEFDFPGAGYYHRPISINYRTEPSTPPTPSPSTPPTPSPSGVSDVPRDLEVVAATPTSLLISWDAPAVTVRYYRITYGREVQKYSDLGPLYIYQEFTVPGSKSTATISGLKPGVDYTITVYAVTGSGESPASSKPISINYRTEHHHHHH . Its measured IC50 is 1.4

Consider PCSK9-PKE2 tandem 4472_B09 (designed binder, not shown: small tags and cut ends, The two parts are one polypeptide in the real molecule, joined by the undisclosed linker K; they are given here as separate chains.) PCSK9 10Fn3: MGVSDVPRDLEVVAATPTSLLISWDAPAEGYGYYRITYGETGGNSPVQEFTVPVSKGTATISGLKPGVDYTITVYAVEFDFPGAGYYHRPISINYRTE PKE2 10Fn3: GVSDVPRDLEVVAATPTSLLISWDAPAVTVRYYRITYGREVQKYSDLGPLYIYQEFTVPGSKSTATISGLKPGVDYTITVYAVTGSGESPASSKPISINYRTEHHHHHH . Its measured IC50 is 2.4
